- Tested on: Colon cancer organoid
- assay text: Targeting of F14 CAF-induced therapy resistance in O23 CRC organoid-stroma co-culture. Cell viability is reported with SN-38.
- Assay type: functional, Homo sapiens
- assay context: Homo sapiens, Concentration 10 uM; read-out: Cell Viability
Square brackets hold non-standard residues; d marks the D form. Peptide text beside a SMILES is read from it. Arg(Me) = CNC(=N)NCCC[C@H](N)C(=O)O; d3Pal = N[C@H](Cc1cccnc1)C(=O)O; azaGly = NNC(=O)O

{"columns": ["compound", "assayed target", "viability at 10 µM [%]"],
 "data": [
  ["CNC(=N)NCCC[C@H](NC(=O)[C@H](CC(C)C)NC(=O)NNC(=O)[C@H](Cc1ccccc1)NC(=O)[C@H](CO)NC(=O)[C@H](CC(N)=O)NC(=O)[C@@H](Cc1cccnc1)NC(=O)[C@H](N)Cc1ccc(O)cc1)C(=O)NCC(N)=O [KISS1-543] (H-[dY][d3Pal]NSF[azaGly]L[Arg(Me)]G-NH2)", "Colon cancer organoid", 71.6],
  ["CC(C)NC(=O)N1CC[C@H](NC2=Nc3cc(F)ccc3N(CC(F)F)c3ccc(Cl)cc32)C1", "Colon cancer organoid", 42.9],
  ["CCCc1cc(C)[nH]c(=O)c1CNC(=O)c1cc(-c2ccnc(N3CCN(C)CC3)c2)cc2c1cnn2C(C)C", "Colon cancer organoid", 94.5],
  ["CCC(=O)N[C@@H]1CC[C@H](C(=O)N(C)c2ccc(-c3nc4ccccc4o3)cc2)C1 [BI 99990]", "Colon cancer organoid", 100],
  ["O=C(NCCCN1CCOC1=O)c1cnc(NCc2cc(Br)ccc2Br)nc1NC1CCCC1", "Colon cancer organoid", 61.8],
  ["CN([C@@H]1CCc2c(CC(=O)O)c3cc(S(C)(=O)=O)ccc3n2C1)S(=O)(=O)c1ccc(F)cc1 [CRTH2-negative-control]", "Colon cancer organoid", 54.8],
  ["Cn1c(-c2csc(C3CCN(CC4=NC5N=CC=CC5N4)CC3)n2)nc2ccccc21 (centres undefined) [BAY-070]", "Colon cancer organoid", 105],
  ["Cc1cnc(-c2cc(Cl)ccc2F)cc1-n1c(=O)n(CC(N)=O)c2ccccc21 [Al11]", "Colon cancer organoid", 66.2],
  ["O=C(NCc1ncc(C(F)(F)F)cc1Cl)c1ccc2c(c1)C1(CCS(=O)(=O)CC1)[C@@H](C1CC1)N2S(=O)(=O)c1ccc(F)cc1 [BAY-786]", "Colon cancer organoid", 106],
  ["CN1CCN(c2ccc(-c3cccc(CN4CCOCC4)c3)cc2NC(=O)c2c[nH]c(=O)cc2C(F)(F)F)CC1", "Colon cancer organoid", 102],
  ["COc1ccccc1S(=O)(=O)Nc1ccc2c(c1)CN(C)C(=O)N2", "Colon cancer organoid", 73.2],
  ["CC(=O)c1c(NS(C)(=O)=O)c2cc(-c3ccc(Cl)cc3)c(-c3ccc(Cl)cc3Cl)nc2n(C)c1=O [MRL-CB1-NC]", "Colon cancer organoid", 60.4],
  ["CCN(CCO)CCCOc1ccc2c(Nc3cc(CC(=O)Nc4cccc(F)c4)[nH]n3)ncnc2c1 [DEFOSBARASERTIB]", "Colon cancer organoid", 28.3],
  ["C[C@@]1(Cc2ccc(C#N)cc2)C(=O)N(c2cc(Cl)cc(Cl)c2)c2ncc(C(=O)NC3(c4nc(C5CCC5)no4)CC3)n21 [BI 9446]", "Colon cancer organoid", 66.3]
]}

###

Entries and their viability at 10 µM values follow.
- Tested on: Colon cancer organoid
- assay text: Targeting of F14 CAF-induced therapy resistance in O23 CRC organoid-stroma co-culture. Cell viability is reported with Gefitinib.
- Format: functional, Homo sapiens
- assay context: Homo sapiens, Concentration 10 uM; read-out: Cell Viability

{"columns": ["molecule", "assayed target", "unit text", "viability at 10 µM"],
 "data": [
  ["Clc1cc2c(NC3CCCC3)nnc(-c3ccncc3)c2cc1Cl", "Colon cancer organoid", "%", 72.9],
  ["COc1cc2c(cc1OCCCN1CCCC1)N=C(N)C21CCC1", "Colon cancer organoid", "%", 55.4],
  ["Cc1noc(C)c1-c1cnc2c(-c3ccc(C(=O)O)cc3)cn([C@@H](C)c3ccccn3)c2c1 [PLX-51107]", "Colon cancer organoid", "%", 78.8],
  ["Cn1c(-c2csc(C3CCN(CC4=NC5N=CC=CC5N4)CC3)n2)nc2ccccc21 (stereo not drawn) [BAY-070]", "Colon cancer organoid", "%", 73.4],
  ["COCCN1CCC(c2cc(CN(C)C(=O)c3cccc(Oc4ccccc4)c3)ccn2)CC1", "Colon cancer organoid", "%", 27.5],
  ["O=C(NC[C@@H]1[C@H]2CN(C(=O)OCc3cc(C(F)(F)F)cc(C(F)(F)F)c3)C[C@@H]12)c1ccc2[nH]nnc2c1 [BI 2545]", "Colon cancer organoid", "%", 83.8],
  ["CCC(=O)N[C@H]1CC[C@@H](C(=O)N(C)c2ccc(-c3nc4ccccc4o3)cc2)C1 [BI 99179]", "Colon cancer organoid", "%", 82],
  ["C[C@@]1(Cc2ccc(C#N)cc2)C(=O)N(c2cc(Cl)cc(Cl)c2)c2ncc(C(=O)NC3(c4nc(C5CCC5)no4)CC3)n21 [BI 9446]", "Colon cancer organoid", "%", 43]
]}

###

Entries and their viability at 10 µM values follow.
- Test system: Colon cancer organoid
- assay text: Targeting of F14 CAF-induced therapy resistance in O23 CRC organoid-stroma co-culture. Cell viability is reported without Gefitinib.
- Assay type: functional, Homo sapiens
- assay context: Homo sapiens, Concentration 10 uM; read-out: Cell Viability

{"columns": ["item smiles", "unit text", "viability at 10 µM"],
 "data": [
  ["CCN(CC)S(=O)(=O)Nc1cccc(-c2ccc3c(NC(=O)C4CC4)n[nH]c3c2)c1", "%", 120],
  ["CN(C)C(=O)c1ccc(-c2cc(C(=O)N(C)C3CCCC3)no2)cc1O", "%", 111],
  ["CC(=O)NCC(=O)N1[C@@H]2CC[C@H]1c1ccc(Nc3ncc(C(F)(F)F)c(NC4CCC4)n3)cc12", "%", 33.7],
  ["CC(C)(C#Cc1ccc(NC(=O)COc2ccccc2C(=O)c2ccccc2)c(Cl)c1)C(=O)O", "%", 160],
  ["Cn1c(=O)[nH]c2cc(N3C(=O)c4cccc5c(CCCO)ccc(c45)C3=O)ccc21", "%", 132],
  ["COc1cc2c(cc1OCCCN1CCCC1)N=C(N)C21CCC1", "%", 122],
  ["COc1nc2ccc([C@@](O)(c3ccccc3)C3CCN(C(C)=O)CC3)cc2c(Cl)c1Cc1ccc(-n2cccn2)cc1", "%", 106],
  ["CNCc1ccccc1-c1csc([C@@H](C)Nc2nc(C)nc3cc(OC)c(OC)cc23)c1", "%", 69.8]
]}

###

- Test system: Colon cancer organoid
- assay text: Targeting of F14 CAF-induced therapy resistance in O23 CRC organoid-stroma co-culture. Cell viability is reported with Gefitinib.
- Type: functional, Homo sapiens
- assay context: Homo sapiens, Concentration 1 uM; read-out: Cell Viability

{"columns": ["compound", "assayed target", "unit text", "viability at 1 µM"],
 "data": [
  ["CN(C)C(=O)Cn1cc(-c2nc([C@@](C)(c3ccc(-c4cnc(N)nc4)cc3)C3CC3)no2)cn1 [BI 665915]", "Colon cancer organoid", "%", 79.9],
  ["O=C(Nc1ccc(-n2nc(-c3cccnc3)cc2C(F)(F)F)cn1)c1ccc(-c2ccccc2)c(F)c1 [BI 2049]", "Colon cancer organoid", "%", 32.7],
  ["COCCOc1nc(-c2ccc(Cl)nc2)nc2c1CN(C(=O)c1ncn3ccccc13)CC2 [THPP-1]", "Colon cancer organoid", "%", 47.7],
  ["O=C(O)[C@H]1[C@H](Cn2nnc3ccccc3c2=O)CC[C@@H]1C(=O)c1ccc(OCCC2CCOCC2)cc1 [BAY-7598]", "Colon cancer organoid", "%", 41.8],
  ["CC(C)CC(=O)N1CCc2nc(-c3ccc(Br)cc3)nc(N(C)Cc3ccccc3)c2C1 [THPP-1-NC]", "Colon cancer organoid", "%", 47.3],
  ["O[C@]1(C(F)(F)F)CCCC[C@H]1Nc1ccc(F)cc1 [BAY-390]", "Colon cancer organoid", "%", 64.2],
  ["O=C(NCCCC1CCCCC1)c1ccc(CNC(=O)c2cnn(-c3ccccc3)c2C(F)(F)F)cc1 [SR-321]", "Colon cancer organoid", "%", 48.4],
  ["O=S(=O)(NC1CCC(c2cc(F)ccc2F)(S(=O)(=O)c2ccc(Cl)cc2)CC1)C(F)(F)F (stereo not drawn) [MRK-560]", "Colon cancer organoid", "%", 60.6]
]}

###

- System: Colon cancer organoid
- assay text: Targeting of F14 CAF-induced therapy resistance in O14 CRC organoid-stroma co-culture. Cell viability is reported without Gefitinib.
- Format: functional, Homo sapiens
- assay context: Homo sapiens, Concentration 10 uM; read-out: Cell Viability

{"columns": ["item smiles", "viability at 10 µM [%]"],
 "data": [
  ["CSc1cccnc1N1CCN(Cc2nc3ccccc3[nH]2)CC1", 73.4],
  ["CNC(=O)c1cc(C(=O)NC2CC2)cn(Cc2ccccc2)c1=O", 116],
  ["CC(=O)N1CCC(c2ccc(C(=O)NC3=NCCN3)cc2C(F)(F)F)CC1", 46.7],
  ["O=C(O)CNC(=O)c1c(O)c2ccccc2n(Cc2ccccc2)c1=O", 103],
  ["CN(C)C(=O)/C(C#N)=C/c1ccc(-c2nc3cnc4c(ccn4C)c3n2C2CCCCC2)o1", 107],
  ["Cn1nc(C(F)(F)F)cc1-c1cnc(N2CCc3cc(S(=O)(=O)Nc4c(F)cc(Cl)cc4F)cc(N4CCCC4=O)c32)nc1", 95],
  ["Cc1sc2c(c1C)C(c1ccc(Cl)cc1)=N[C@@H](CC(=O)OC(C)(C)C)c1nnc(C)n1-2", 25.8],
  ["Cc1c(NC(=O)c2ccc(C(C)(C)C)cc2)cccc1-c1cn(C)c(=O)c(Nc2ccc(C(=O)N3CCOCC3)cc2)n1", 82.5],
  ["COCCN1CCC(c2cc(CN(C)C(=O)c3cccc(Oc4ccccc4)c3)ccn2)CC1", 67.2]
]}
